# System: murine dermal fibroblasts
# protocol.description: RNA-Seq of newborn murine dermal fibroblasts
# Format: cell-based, mouse
# details: 10^−7 M, 24 h
Dcun1d1 expression level for assorted compounds
Please state the value as a number alone, without comment.

Below are worked cases with known answers.
- compound: "CC(C)CCC[C@](C)(O)[C@H]1CC[C@H]2[C@@H]3CC=C4C[C@@H](O)CC[C@]4(C)[C@H]3CC[C@@]21C [20(OH)C, 20-hydroxycholesterol, reference compound]"
  Dcun1d1 expression level: 3.938
- compound: "C=C1C(=CC=C2CCCC3(C)C2CCC3C(C)(O)CC(O)CC(C)C)CC(O)CC1O (stereo not shown) [1,20,23(OH)3D3]"
  Dcun1d1 expression level: 4.162
- compound: "C=C1/C(=C\\C=C2/CCC[C@]3(C)[C@@H]([C@H](C)CCCC(C)(C)O)CC[C@@H]23)C[C@@H](O)C[C@@H]1O [1,25(OH)2D3, reference compound]"
  Dcun1d1 expression level: 6.457

## Task Answer with the recorded Dcun1d1 expression level for the compound listed here: C=C1CCC(O)CC1=CC=C1CCCC2(C)C1CCC2C(C)(O)CC(O)CC(C)C (stereo not shown) [20,23(OH)2D3]
## Result 4.486

All values here come from paper PMC8044163.
